Each entry below lists one item and its recorded protein stability index value.
B1: GNB5 (parent)
chain: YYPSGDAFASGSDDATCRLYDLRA

# Variants of: B1
# assay_info: protein stability index of a GFP-peptide fusion (GPS, HEK-293T) (PSI 1-6); higher = more stable;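 note: lentivirally expressed fusions sorted by FACS into six bins by GFP to DsRed ratio, PSI derived from sequencing read proportions per bin multiplied by bin number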
# condition_details: c terminus: a fixed tail appended
Give a plain numeric answer without units written out.

Guide cases for protein stability index, answers given:
| variant_string | protein stability index |
| --- | --- |
| C17I | 2.89 |
| P3M | 2.99 |

stdin: Which protein stability index value belongs to "R18C" ?
stdout: 2.29

stdin: Please give the result for "G5M" too.
stdout: 2.88

stdin: Same thing, different variant: "L22R"
stdout: 2.75

stdin: Then this variant: "S12V"
stdout: 2.04

stdin: Param item: "D14W"
stdout: 1.22

stdin: And for "D13S" ?
stdout: 2.28

stdin: Please answer likewise for "D14P"
stdout: 2.12

stdin: Moving on to the next variant: "A9G"
stdout: 2.41

stdin: # repeat for "L22G"
stdout: 2.65

stdin: Also, "R18L" please.
stdout: 2.45

stdin: Please do the same for "L19R" as well.
stdout: 2.55

stdin: Next variant up: "R18D"
stdout: 3.35

stdin: And for "D14Y" ?
stdout: 1.58

stdin: Try "A15T" next.
stdout: 2.26

stdin: And the next one, "A15Y" ?
stdout: 2.21

stdin: Would you mind doing "P3T" as well?
stdout: 3.52

stdin: // next record "D14A"
stdout: 1.91

stdin: Cool, now "G11R"
stdout: 1.83

stdin: Can you check "D14V" next?
stdout: 2.27

The measurements presented in this section are drawn from the supplement of paper PMC10567573.
